# measuredOn: Toll-like receptor 9 (Homo sapiens) + Myeloid differentiation primary response protein MyD88 (Homo sapiens) (UniProt Q9NR96+Q99836)
# Sequence (Q99836 whole entry, looked up): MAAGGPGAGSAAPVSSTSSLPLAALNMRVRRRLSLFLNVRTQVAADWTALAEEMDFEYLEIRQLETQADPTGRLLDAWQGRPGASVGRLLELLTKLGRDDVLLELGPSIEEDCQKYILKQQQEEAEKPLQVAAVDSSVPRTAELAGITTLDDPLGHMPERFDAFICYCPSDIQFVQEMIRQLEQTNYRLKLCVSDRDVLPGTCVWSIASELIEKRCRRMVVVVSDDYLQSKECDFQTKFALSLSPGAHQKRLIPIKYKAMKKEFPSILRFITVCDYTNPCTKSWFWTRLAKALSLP
# Sequence (Q9NR96 whole entry, looked up): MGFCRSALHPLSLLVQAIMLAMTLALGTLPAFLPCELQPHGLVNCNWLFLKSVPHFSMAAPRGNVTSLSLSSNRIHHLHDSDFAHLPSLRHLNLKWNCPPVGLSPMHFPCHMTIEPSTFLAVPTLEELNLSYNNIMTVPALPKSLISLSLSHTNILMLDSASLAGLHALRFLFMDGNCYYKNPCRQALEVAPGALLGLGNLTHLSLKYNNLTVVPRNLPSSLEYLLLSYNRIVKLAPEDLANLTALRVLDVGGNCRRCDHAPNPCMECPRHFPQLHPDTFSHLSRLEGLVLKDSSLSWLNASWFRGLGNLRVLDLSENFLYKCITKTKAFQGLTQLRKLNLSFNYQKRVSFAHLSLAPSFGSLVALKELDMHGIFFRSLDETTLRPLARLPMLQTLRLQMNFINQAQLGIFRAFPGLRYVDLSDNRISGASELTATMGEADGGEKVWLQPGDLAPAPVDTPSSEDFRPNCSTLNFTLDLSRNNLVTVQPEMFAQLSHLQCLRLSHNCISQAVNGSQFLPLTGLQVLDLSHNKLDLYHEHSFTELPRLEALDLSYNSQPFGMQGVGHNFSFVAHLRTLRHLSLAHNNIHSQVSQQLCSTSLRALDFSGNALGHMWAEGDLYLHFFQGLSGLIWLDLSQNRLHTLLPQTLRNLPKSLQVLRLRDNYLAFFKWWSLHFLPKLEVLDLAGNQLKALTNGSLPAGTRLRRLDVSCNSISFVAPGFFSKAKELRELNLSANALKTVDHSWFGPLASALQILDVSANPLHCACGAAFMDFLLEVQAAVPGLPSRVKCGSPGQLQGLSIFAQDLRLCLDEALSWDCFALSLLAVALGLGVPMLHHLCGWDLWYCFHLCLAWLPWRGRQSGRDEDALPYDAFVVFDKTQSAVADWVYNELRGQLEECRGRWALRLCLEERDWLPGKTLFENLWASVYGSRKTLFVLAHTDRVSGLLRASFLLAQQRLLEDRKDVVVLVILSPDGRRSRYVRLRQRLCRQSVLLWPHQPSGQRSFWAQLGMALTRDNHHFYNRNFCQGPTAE
# assayInfo: disruptors of TLR9 binding to MyD88 – cell-based, CHO, BLA complementation, fluorescence, primary screen (AID 504734);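 note: 0% = DMSO only wells and 100% = clavulanate BLA inhibitor control wells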
# particulars: CHO BLA complementation TLR9-MyD88, CCF4 FRET ratio; at 4.98 µM; active compounds read high
The whole screen tested about 340,000 compounds, of which about 730 (0.21%) were called active. This is one part of a sample in which actives are shown more often than they occur.
Please respond with reported inhibition for every item in the list.

Examples with answers:
// query Consider the compound Cc1nc2ccccn2c(=O)c1NC(=O)c1ccc(Br)o1 and give its measured inhibition.
// result -8.57% (inactive)

// query For the compound C[C@H](CO)N1C[C@H](C)[C@H](CN(C)C(=O)c2ccncc2)OCc2ccccc2-c2c(n(C)c3ccccc23)C1=O , what inhibition is on record?
// result 7.41% (inactive)

Report inhibition for each item below.
1. O=C(O)c1ccccc1Cc1ccc(F)c2ccccc12
2. COc1ccc(NC(=O)CN2C(=O)NC(C)(c3ccccc3)C2=O)cn1 (stereo not given)
3. Cc1cc2c3ccccc3[nH]c(=O)n2n1

// result
1: 0.89% (inactive); 2: 4.63% (inactive); 3: 1.06% (inactive)

Each compound below has a reported value. Please supply its inhibition.
1. Cn1nc(N)c2ncc(C(Cl)(Cl)Cl)nc21
2. O=C1NC(Cc2ccccc2)c2nc3ccc(Br)cc3c(=O)n2-c2cc3ccccc3cc21 (stereo not given)
3. COc1ccc(NC(=O)/C(Cl)=C(/Cl)S(=O)Cc2ccc(C)cc2)cn1 (stereo not given)
4. COc1ccc(NS(=O)(=O)c2ccc(NC(=S)NC(=O)/C=C/c3ccc(C)cc3)cc2)nn1

// result
-17.4% (inactive)
4.34% (inactive)
36.2% (active)
4.17% (inactive)

// query Field request: inhibition | item: C[C@@H]1CN([C@@H](C)CO)C(=O)CCCn2nncc2CO[C@H]1CN(C)Cc1ccc(C(F)(F)F)cc1
// result -8.49% (inactive)

###

# measuredOn: Toll-like receptor 9 (Homo sapiens) + Myeloid differentiation primary response protein MyD88 (Homo sapiens) (UniProt Q9NR96+Q99836)
# assayInfo: disruptors of TLR9 binding to MyD88 – cell-based, CHO, BLA complementation, fluorescence, primary screen (AID 504734);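 note: 0% = DMSO only wells and 100% = clavulanate BLA inhibitor control wells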
# particulars: CHO BLA complementation TLR9-MyD88, CCF4 FRET ratio; at 4.98 µM; active compounds read high
Out of some 340,000 compounds screened, about 730 (0.21%) were called active. The entries come from a sample that favours actives as a whole.
Could you please report measured inhibition for the items listed next?
One number for each entry, in %.

The cases that follow already have their inhibition on record.
// query Bench note: what inhibition did O=C(O)C1CCCN1c1nc(Cl)ccc1[N+](=O)[O-] (stereo unspecified) show?
// result -12.8

// query Data request, read-out inhibition, for Cc1nc2ccccc2nc1CC(O)(c1ccccc1)c1ccccc1
// result 2.03

// query Reported inhibition for COc1ccc(NC(=O)CCCOc2ccc(C(C)=O)cc2)cc1S(=O)(=O)N1CCCCC1 : what is it?
// result -6.11

// query If you can, please state the reported inhibition value of Cc1ccc(CS(=O)(=O)c2ncc(Cl)c(C(=O)Nc3nnc(C)s3)n2)cc1 .
// result 12.2

// query Please look up its inhibition: CN1CCN(c2ccc(NC(=O)c3ccc4c(c3)[nH]c(=O)n4Cc3ccc(F)cc3)cc2)CC1
// result 5.07

Below are some compounds; for each one, tell me its inhibition.
1. COc1ccc(C2CC(c3ccc(C)cc3)Nc3ncnn32)cc1 (stereo unspecified)
2. Clc1ccc2c(c1)C1=C(C(c3ccncc3)O2)C(c2ccc(Br)cc2)n2ncnc2N1 (stereo unspecified)

// result
1.5
-8.31

Would you mind listing inhibition for each of the following compounds?
1. O=C1CCC(=O)N1CCC(=O)N(C(=O)NC1CCCCC1)C1CCCCC1
2. CC1C(=O)N(Cc2cn(Cc3ccco3)nn2)CCS(=O)(=O)N1Cc1ccc(-c2cccc(CO)c2)cc1 (stereo unspecified)
3. C=CCN1CCN(c2ccncc2S(=O)(=O)N2CCN(C)CC2)CC1

// result
1. 4
2. -1.07
3. 9.55

Could I get inhibition for every one of these entries?
1. COc1ccc(C2CC(c3cccs3)=NN2c2nc(C)c(C(C)=O)s2)cc1OC (stereo unspecified)
2. Fc1ccc(N2N=C(c3cccs3)CC2c2ccco2)c(F)c1 (stereo unspecified)
3. O=c1[nH]c2ccccc2n1C1CCN(CCOc2ccccc2)CC1

// result
1: -3.47; 2: 1.6; 3: -9.37

Go through the list and state inhibition for each entry.
1. COc1ccccc1C(=O)NC(=S)Nc1ccc(N2CCOCC2)cc1
2. O=C(Cc1ccc([N+](=O)[O-])cc1)NCCS(=O)(=O)N1CCN(c2ccccc2)CC1
3. CC(=O)Nc1ccc(SCC(=O)NC(=O)c2ccc(Cl)cc2)cc1
4. O=C(Nc1ccc(F)cc1)c1ccc(S(=O)(=O)NCc2cccnc2)cc1
5. CN(Cc1ccccc1)C(=O)c1cccc(C(=O)N(C)Cc2ccccc2)c1
6. C#CCN(C[C@H]1[C@H](OC(=O)NC2CCCC2)[C@H](OC(=O)NC2CCCC2)C[C@H]2C(=O)N(c3ccccc3)C(=O)[C@@H]12)S(=O)(=O)c1ccc(C)cc1

// result
1. -9.36
2. 12.1
3. -11.6
4. -9.53
5. -10.2
6. -5.56

Okay, here is my list. What is inhibition for each of these?
1. Cc1cccc(NC(=O)c2nc(S(=O)(=O)Cc3ccccc3)ncc2Cl)c1
2. Cc1cc2cc3n(c2nn1)N=C(Cl)CC3

// result
1. 48.7
2. -2.59
